Where do these numbers come from? They come from ChEMBL document CHEMBL5729163.

targetSystem: Nociceptin receptor (Homo sapiens, UniProt P41146)
Sequence (P41146 whole entry): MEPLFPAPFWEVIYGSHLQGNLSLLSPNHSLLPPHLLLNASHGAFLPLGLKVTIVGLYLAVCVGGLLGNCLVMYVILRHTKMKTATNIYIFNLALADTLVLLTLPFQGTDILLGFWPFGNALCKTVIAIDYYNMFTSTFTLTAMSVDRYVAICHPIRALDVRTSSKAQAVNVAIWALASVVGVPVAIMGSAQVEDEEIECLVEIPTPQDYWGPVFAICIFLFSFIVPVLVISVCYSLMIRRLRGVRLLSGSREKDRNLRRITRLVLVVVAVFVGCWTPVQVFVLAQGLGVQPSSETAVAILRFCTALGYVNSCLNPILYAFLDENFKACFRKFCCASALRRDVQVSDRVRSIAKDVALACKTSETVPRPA
testDetails: Cell-Based NOP Assay: Formula (I) compounds were tested for antagonism of the nociceptin receptor (NOP) in a cell-based cAMP assay, using the LANCE cAMP Detection Kit, Perkin Elmer (Waltham, Mass.). This assay (LANCE cAMP) is a homogeneous, time-resolved fluorescence resonance energy transfer (TR-FRET) immunoassay designed to measure cAMP produced upon modulation of adenylyl cyclase activity by G protein-coupled receptors (GPCRs).ProtocolCells expressing human opioid NOP (ValiScreen cell line, cat #ES-230-C Perkin Elmer (Waltham, Mass.) were dispensed in simulation buffer (5 mM Hepes, 0.1% BSA, 0.5 mM IBMX in Hanks Buffered Saline Solution) at 2.5 μL cells per well (400 cells/well) into a 1536 white TC-treated assay plate. Compound was then added and plates were incubated for 15 minutes at room temperature. To each well was added 2.5 μL of a solution containing forskolin (3 μM final) and nociceptin peptide (390 pM final) diluted in stimulation buffer, and the plates were incubated for 30 minutes at room temperature. To each well was dispensed 5 μL of LANCE Ultra detection (1:300 dilution of anti-cAMP ULight with a 1:100 dilution of Eu-cAMP tracer diluted in cAMP Detection Buffer) reagent, and the plates were incubated for 1 hr at room temperature. The plate was then read on the ViewLux microplate reader (Perkin Elmer, Waltham, Mass.) using the LANCE 1536 protocol with 60 second exposure times and 50 μs delay. This protocol has an excitation wavelength of 340 nm (DUG11 filter) and emission wavelengths of 615 nm (Eu-Donor) and 665 nm (Alexa 647 cAMP antibody acceptor).Data AnalysisData was analyzed, normalized, and visualized using ACAS (John McNeil & Co.). Efficacy was calculated using activity of the vehicle (DMSO) as 0% efficacy and the activity of the corresponding reference positive control (SCH 221510, Tocris Bioscience (Pittsburgh, Pa.), Catalog number 3240) as 100% efficacy. Activity was calculated as the ratio of donor and acceptor emissions. All curve fits and IC50 determinations were performed using a non-linear regression model. The IC50 value was measured as the concentration at which half-maximal response was calculated.
experimentalReadout: IC50

• CNC(=O)C1(NCC[C@H]2CC[C@@H](c3c(F)cncc3Cl)CC2)CCOCC1 = 1 to 10 nM
• Cc1cc(F)ccc1C1CCC(CCNC2(C)CCOCC2)CC1 (stereo not drawn) = 100 to 1000 nM
• Cc1c(F)c(F)ccc1[C@H]1CC[C@@H](CCNC2(C(N)=O)CCOCC2)CC1 = 10 to 100 nM

* * *

Measured IC50 values are reported for all entries that follow.
targetSystem: Nociceptin receptor (Homo sapiens)
testDetails: Cell-Based NOP Assay: Formula (I) compounds were tested for antagonism of the nociceptin receptor (NOP) in a cell-based cAMP assay, using the LANCE cAMP Detection Kit, Perkin Elmer (Waltham, Mass.). This assay (LANCE cAMP) is a homogeneous, time-resolved fluorescence resonance energy transfer (TR-FRET) immunoassay designed to measure cAMP produced upon modulation of adenylyl cyclase activity by G protein-coupled receptors (GPCRs).ProtocolCells expressing human opioid NOP (ValiScreen cell line, cat #ES-230-C Perkin Elmer (Waltham, Mass.) were dispensed in simulation buffer (5 mM Hepes, 0.1% BSA, 0.5 mM IBMX in Hanks Buffered Saline Solution) at 2.5 μL cells per well (400 cells/well) into a 1536 white TC-treated assay plate. Compound was then added and plates were incubated for 15 minutes at room temperature. To each well was added 2.5 μL of a solution containing forskolin (3 μM final) and nociceptin peptide (390 pM final) diluted in stimulation buffer, and the plates were incubated for 30 minutes at room temperature. To each well was dispensed 5 μL of LANCE Ultra detection (1:300 dilution of anti-cAMP ULight with a 1:100 dilution of Eu-cAMP tracer diluted in cAMP Detection Buffer) reagent, and the plates were incubated for 1 hr at room temperature. The plate was then read on the ViewLux microplate reader (Perkin Elmer, Waltham, Mass.) using the LANCE 1536 protocol with 60 second exposure times and 50 μs delay. This protocol has an excitation wavelength of 340 nm (DUG11 filter) and emission wavelengths of 615 nm (Eu-Donor) and 665 nm (Alexa 647 cAMP antibody acceptor).Data AnalysisData was analyzed, normalized, and visualized using ACAS (John McNeil & Co.). Efficacy was calculated using activity of the vehicle (DMSO) as 0% efficacy and the activity of the corresponding reference positive control (SCH 221510, Tocris Bioscience (Pittsburgh, Pa.), Catalog number 3240) as 100% efficacy. Activity was calculated as the ratio of donor and acceptor emissions. All curve fits and IC50 determinations were performed using a non-linear regression model. The IC50 value was measured as the concentration at which half-maximal response was calculated.
experimentalReadout: IC50

• CN1CCC(NCCC2CCC(c3ccc(Cl)cc3F)CC2)CC1 (stereo not drawn) = 100 to 1000 nM
• Fc1ccc([C@H]2CC[C@@H](CCNC3CCOCC3)CC2)c(Cl)c1 = < 1 nM
• Cc1cccnc1C1CCC(CCNC2(C)CCOCC2)CC1 (stereo not drawn) = 100 to 1000 nM

* * *

targetSystem: UniProt P41146
testDetails: Cell-Based NOP Assay: Formula (I) compounds were tested for antagonism of the nociceptin receptor (NOP) in a cell-based cAMP assay, using the LANCE cAMP Detection Kit, Perkin Elmer (Waltham, Mass.). This assay (LANCE cAMP) is a homogeneous, time-resolved fluorescence resonance energy transfer (TR-FRET) immunoassay designed to measure cAMP produced upon modulation of adenylyl cyclase activity by G protein-coupled receptors (GPCRs).ProtocolCells expressing human opioid NOP (ValiScreen cell line, cat #ES-230-C Perkin Elmer (Waltham, Mass.) were dispensed in simulation buffer (5 mM Hepes, 0.1% BSA, 0.5 mM IBMX in Hanks Buffered Saline Solution) at 2.5 μL cells per well (400 cells/well) into a 1536 white TC-treated assay plate. Compound was then added and plates were incubated for 15 minutes at room temperature. To each well was added 2.5 μL of a solution containing forskolin (3 μM final) and nociceptin peptide (390 pM final) diluted in stimulation buffer, and the plates were incubated for 30 minutes at room temperature. To each well was dispensed 5 μL of LANCE Ultra detection (1:300 dilution of anti-cAMP ULight with a 1:100 dilution of Eu-cAMP tracer diluted in cAMP Detection Buffer) reagent, and the plates were incubated for 1 hr at room temperature. The plate was then read on the ViewLux microplate reader (Perkin Elmer, Waltham, Mass.) using the LANCE 1536 protocol with 60 second exposure times and 50 μs delay. This protocol has an excitation wavelength of 340 nm (DUG11 filter) and emission wavelengths of 615 nm (Eu-Donor) and 665 nm (Alexa 647 cAMP antibody acceptor).Data AnalysisData was analyzed, normalized, and visualized using ACAS (John McNeil & Co.). Efficacy was calculated using activity of the vehicle (DMSO) as 0% efficacy and the activity of the corresponding reference positive control (SCH 221510, Tocris Bioscience (Pittsburgh, Pa.), Catalog number 3240) as 100% efficacy. Activity was calculated as the ratio of donor and acceptor emissions. All curve fits and IC50 determinations were performed using a non-linear regression model. The IC50 value was measured as the concentration at which half-maximal response was calculated.
Measured IC50 values are reported for all entries that follow.
experimentalReadout: IC50

* CN1CCC(NCC[C@H]2CC[C@@H](c3ccc(F)cc3Cl)CC2)CC1=O (stereo partly drawn) | 10 to 100 nM
* CC(=O)N1CCC(NCC[C@H]2CC[C@@H](c3ccc(F)cc3Cl)CC2)CC1 | 10 to 100 nM
* Fc1ccc(C2CCC(CCNC3CCCC3)CC2)c(F)c1 (stereo not drawn) | 10 to 100 nM

* * *

targetSystem: Nociceptin receptor (Homo sapiens)
testDetails: Cell-Based NOP Assay: Formula (I) compounds were tested for antagonism of the nociceptin receptor (NOP) in a cell-based cAMP assay, using the LANCE cAMP Detection Kit, Perkin Elmer (Waltham, Mass.). This assay (LANCE cAMP) is a homogeneous, time-resolved fluorescence resonance energy transfer (TR-FRET) immunoassay designed to measure cAMP produced upon modulation of adenylyl cyclase activity by G protein-coupled receptors (GPCRs).ProtocolCells expressing human opioid NOP (ValiScreen cell line, cat #ES-230-C Perkin Elmer (Waltham, Mass.) were dispensed in simulation buffer (5 mM Hepes, 0.1% BSA, 0.5 mM IBMX in Hanks Buffered Saline Solution) at 2.5 μL cells per well (400 cells/well) into a 1536 white TC-treated assay plate. Compound was then added and plates were incubated for 15 minutes at room temperature. To each well was added 2.5 μL of a solution containing forskolin (3 μM final) and nociceptin peptide (390 pM final) diluted in stimulation buffer, and the plates were incubated for 30 minutes at room temperature. To each well was dispensed 5 μL of LANCE Ultra detection (1:300 dilution of anti-cAMP ULight with a 1:100 dilution of Eu-cAMP tracer diluted in cAMP Detection Buffer) reagent, and the plates were incubated for 1 hr at room temperature. The plate was then read on the ViewLux microplate reader (Perkin Elmer, Waltham, Mass.) using the LANCE 1536 protocol with 60 second exposure times and 50 μs delay. This protocol has an excitation wavelength of 340 nm (DUG11 filter) and emission wavelengths of 615 nm (Eu-Donor) and 665 nm (Alexa 647 cAMP antibody acceptor).Data AnalysisData was analyzed, normalized, and visualized using ACAS (John McNeil & Co.). Efficacy was calculated using activity of the vehicle (DMSO) as 0% efficacy and the activity of the corresponding reference positive control (SCH 221510, Tocris Bioscience (Pittsburgh, Pa.), Catalog number 3240) as 100% efficacy. Activity was calculated as the ratio of donor and acceptor emissions. All curve fits and IC50 determinations were performed using a non-linear regression model. The IC50 value was measured as the concentration at which half-maximal response was calculated.
Measured IC50 values are reported for all entries that follow.
experimentalReadout: IC50

• CC1(NCC[C@H]2CC[C@@H](c3ncc(F)cc3Cl)CC2)CCNC(=O)C1 (some centres undefined) = 0.1 to 1 µM
• Cc1cc(F)cc(F)c1[C@H]1CC[C@H](CCNC2(C(N)=O)CCOCC2)CC1 = 0.001 to 0.01 µM
• CC1(NCCC2CCC(c3ncc(F)cc3Cl)CC2)CCCC1 (centres undefined) = 0.01 to 0.1 µM
• NC(=O)C1(NCC[C@H]2CC[C@@H](c3ccc(F)cc3Cl)CC2)CCOCC1 = 0.001 to 0.01 µM
